Readings of normalized RNA/DNA level without ligand (log10) for the listed variants
B1: library; a variant is named by its letters at N, in order (parent)
chain: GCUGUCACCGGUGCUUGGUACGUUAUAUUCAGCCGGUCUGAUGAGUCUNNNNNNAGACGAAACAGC

Variants of: B1
Assay: normalized RNA/DNA level without ligand (relative to sTRSVctl = 100) (log10 (% of sTRSVctl)); HEK293T overexpressing SLC46A1; higher = less ribozyme self-cleavage, higher mRNA level
Settings: without (6R,S)-folinic acid; ligand present: no
// keep it numeric: no unit symbol after the value

These solved cases illustrate the format of a correct answer.
Prompt: Please report the measured normalized RNA/DNA level without ligand (log10) for GCUGUCACCGGUGCUUGGUACGUUAUAUUCAGCCGGUCUGAUGAGUCUAGUUCAAGACGAAACAGC [AGUUCA]
Completion: 2

Prompt: Please report the measured normalized RNA/DNA level without ligand (log10) for GCUGUCACCGGUGCUUGGUACGUUAUAUUCAGCCGGUCUGAUGAGUCUAUCACUAGACGAAACAGC [AUCACU]
Completion: 2.03

Prompt: Please report the measured normalized RNA/DNA level without ligand (log10) for GCUGUCACCGGUGCUUGGUACGUUAUAUUCAGCCGGUCUGAUGAGUCUUGACGAAGACGAAACAGC [UGACGA]
Completion: 1.95

Prompt: Please report the measured normalized RNA/DNA level without ligand (log10) for GCUGUCACCGGUGCUUGGUACGUUAUAUUCAGCCGGUCUGAUGAGUCUCAUCGGAGACGAAACAGC [CAUCGG]
Completion: 1.99

Prompt: Please report the measured normalized RNA/DNA level without ligand (log10) for GCUGUCACCGGUGCUUGGUACGUUAUAUUCAGCCGGUCUGAUGAGUCUAUAGUAAGACGAAACAGC [AUAGUA]
Completion: 1.93

More entries:
Prompt: Please report the measured normalized RNA/DNA level without ligand (log10) for GCUGUCACCGGUGCUUGGUACGUUAUAUUCAGCCGGUCUGAUGAGUCUGUGUGCAGACGAAACAGC [GUGUGC]
Completion: 1.76

Prompt: Please report the measured normalized RNA/DNA level without ligand (log10) for GCUGUCACCGGUGCUUGGUACGUUAUAUUCAGCCGGUCUGAUGAGUCUGGCCUCAGACGAAACAGC [GGCCUC]
Completion: 2.04
